target: Tryptophan--tRNA ligase (Mycobacterium tuberculosis (strain ATCC 25618 / H37Rv)) (UniProt P9WFT3); experiment: Biochemical assay for Mt-TrpRS; type: functional; design: scale not given: direction of the effect not stated beside the values; details: 10 µM
Sequence (P9WFT3 whole entry): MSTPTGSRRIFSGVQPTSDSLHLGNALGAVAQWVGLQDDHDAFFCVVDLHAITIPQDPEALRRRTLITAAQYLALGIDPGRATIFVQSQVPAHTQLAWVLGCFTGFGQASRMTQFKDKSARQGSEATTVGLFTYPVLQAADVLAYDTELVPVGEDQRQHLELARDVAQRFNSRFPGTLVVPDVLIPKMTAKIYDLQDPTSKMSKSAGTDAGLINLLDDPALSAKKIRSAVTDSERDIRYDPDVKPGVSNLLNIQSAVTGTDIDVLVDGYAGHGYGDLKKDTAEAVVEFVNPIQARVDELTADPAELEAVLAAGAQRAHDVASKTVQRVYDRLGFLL
Hit rate of the full screen: of about 65,000 compounds, about 65 (0.1%) showed an effect of 50% or more. The list comes from a sample in which strong results are over-represented; it also holds close analogues and randomly drawn compounds.
measured property: Percent Effect (%)
# value in %; strip the unit string

Entry CCNC(=O)N1C[C@@H]2OCC(=O)N(CC3CC3)[C@@H]2C1 , Percent Effect reported as -1.91

Entry CC(c1ccc2c(c1)OCO2)N1Cc2nc(N(C)C)ncc2C1=O (stereo not given) , Percent Effect reported as 4.59

Entry c1ccc(CN2CC[C@@H]3O[C@@H](COCCN4CCCC4)CC[C@@H]32)nc1 , Percent Effect reported as 1.72

Entry CC[S+](CC)[c-]1c(=O)[nH]c(=O)n(Cc2ccc(F)cc2)c1=O , Percent Effect reported as -5.58

Entry c1cncc(CN2CCO[C@H]3[C@H](OCCN4CCCC4)CC[C@@H]32)c1 , Percent Effect reported as 2.57

* * *

target: Tryptophan--tRNA ligase (Mycobacterium tuberculosis (strain ATCC 25618 / H37Rv)) (UniProt P9WFT3); assay: Biochemical assay for Mt-TrpRS; type: functional; parameters: scale not given: direction of the effect not stated beside the values; settings: 10 µM
The campaign covered roughly 65,000 compounds. About 65 (0.1%) showed an effect of 50% or more. What follows is part of a selection rich in strong results, with near analogues and random picks from the rest.
Assign Percent Effect to each entry below.
# value in %; strip the unit string

Entry COc1ccc2nnc(CCCC(=O)NCc3cccn3C)n2n1 , Percent Effect reported as 1.21

Entry CC(=O)N1CCC(C(=O)N2CCC2c2nc(-c3ccc(C)s3)no2)CC1 (stereo unspecified) , Percent Effect reported as 56.7

Entry O=C1CO[C@@H]2CN(S(=O)(=O)c3ccccc3)C[C@H]2N1CC1CC1 , Percent Effect reported as 4.3

Entry Cc1ncsc1C(=O)NC1CCN(CCCC#N)CC1 , Percent Effect reported as -4.15

Entry CN1CCc2nc(C3CCCN(S(=O)(=O)c4ccccc4)C3)ncc2C1 (stereo unspecified) , Percent Effect reported as -1.11

Entry CC(=O)N1CCC1c1nc(-c2ccc(C)s2)no1 (stereo unspecified) , Percent Effect reported as 13.1

* * *

molecular target: Tryptophan--tRNA ligase (Mycobacterium tuberculosis (strain ATCC 25618 / H37Rv)); test: Biochemical assay for Mt-TrpRS; assay type: functional; set-up: scale not given: direction of the effect not stated beside the values; conditions: 10 µM
Among all 65,000 compounds or so, about 65 (0.1%) showed an effect of 50% or more. The entries come from a sample that favours strong results as a whole.
measured property: Percent Effect (%)
# value in %; strip the unit string

Entry CCn1cnnc1CNC(=O)NC(c1cccs1)C1CCCC1 (stereo not given) , Percent Effect reported as 55.9

Entry CC(C)CN(C)c1ccc(C(=O)N2CCCC2c2cnn(C)c2)cn1 (stereo not given) , Percent Effect reported as 2.24

Entry Fc1cccc(-c2nc(CN3CCCC3Cn3cncn3)co2)c1 (stereo not given) , Percent Effect reported as 10.9

Entry Cc1ccc(-c2nc(CN3CCCC3Cn3cncn3)co2)cc1 (stereo not given) , Percent Effect reported as -4.8

Entry Fc1ccc(-c2nc(CN3CCCC3Cn3cncn3)co2)cc1 (stereo not given) , Percent Effect reported as 53.9

Entry Cc1ccc(O)c(CNc2cccc(OCCF)c2)n1 , Percent Effect reported as -4.08

Entry Cc1csc(C(=O)NCCN2CCC(c3cccs3)CC2)c1 , Percent Effect reported as 0.44

Entry O=C(COc1ccc(Cl)cc1)N1CCOCC1c1ncon1 (stereo not given) , Percent Effect reported as 3.96

Entry CN(C)c1ncccc1CNC(=O)N1CCCC1CN1CCCC1 (stereo not given) , Percent Effect reported as 67.8

Entry CCn1cnnc1CNC(=O)NC(c1ccccc1)C1CCCC1 (stereo not given) , Percent Effect reported as 0.594

Entry CCCN(CC)c1ccc(C(=O)N2CCCC2c2cnn(C)c2)cn1 (stereo not given) , Percent Effect reported as -3.89

Entry C=C(C)CN(CC)C(=O)c1cc(F)ccc1N1CCN(C)CC1 , Percent Effect reported as 1.96

Entry CN(C)c1ncccc1CNC(=O)N1CCCC1CN1CCCCC1 (stereo not given) , Percent Effect reported as -0.719

Entry Cc1cccc(NCc2nc(C)ccc2O)c1 , Percent Effect reported as 52.2

Entry CN(C)c1ncccc1CNC(=O)N1CCCC1c1ccsc1 (stereo not given) , Percent Effect reported as -2.64

Entry CCCNCc1ccc(-c2ccnc3[nH]ccc23)cc1 , Percent Effect reported as -1.02

Entry CC[C@H]1CN2CC[C@H]1C[C@@H]2CNCc1ccc(OC(F)(F)F)cc1 , Percent Effect reported as -0.828

Entry O=C(COc1cccc(Br)c1)N1CCOCC1c1ncon1 (stereo not given) , Percent Effect reported as -4.77

Entry Cc1cnn(CC2CCCN2Cc2coc(-c3cccc(F)c3)n2)c1 (stereo not given) , Percent Effect reported as 4.37

Entry c1ccc(CN2C[C@H]3CCC[C@@]3(COCC3CC3)C2)nc1 , Percent Effect reported as -0.775

Entry O=C(COc1cccc(Cl)c1)N1CCOCC1c1ncon1 (stereo not given) , Percent Effect reported as 60.2

Entry Fc1ccc(-c2nc(CN3CCCCC3Cn3cncn3)co2)cc1 (stereo not given) , Percent Effect reported as -4.8

Entry CCn1c(C(=O)N2CCN(C(=O)NC(C)C)CC2)cc2ccccc21 , Percent Effect reported as 0.24

Entry CCN(c1ccc(C(=O)N2CCCC2c2cnn(C)c2)cn1)C(C)C (stereo not given) , Percent Effect reported as 64.8

Entry CCn1cnnc1CNC(=O)NC(C)c1cccs1 (stereo not given) , Percent Effect reported as -0.56
